Cited source: patent US12552758B2

Target: recombinant N-terminal PMS2 (residues 1-365) (Homo sapiens (Human), UniProt P54278)
Sequence (P54278 1-365): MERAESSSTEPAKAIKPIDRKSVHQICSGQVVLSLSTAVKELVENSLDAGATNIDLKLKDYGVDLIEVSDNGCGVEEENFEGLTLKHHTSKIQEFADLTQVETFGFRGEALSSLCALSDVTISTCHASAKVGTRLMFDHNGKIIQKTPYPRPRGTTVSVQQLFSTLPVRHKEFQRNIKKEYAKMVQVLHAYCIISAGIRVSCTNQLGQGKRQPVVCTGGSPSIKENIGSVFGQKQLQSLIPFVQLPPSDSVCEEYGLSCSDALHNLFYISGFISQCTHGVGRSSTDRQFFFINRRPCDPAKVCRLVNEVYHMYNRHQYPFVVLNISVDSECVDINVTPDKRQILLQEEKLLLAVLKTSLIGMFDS
Test: Fluorescence polarisation assay for PMS2
Conditions: FP probe displacement; 10 nM N-terminal PMS2, 5 nM probe compound, read after 1 hour
assayMetric: IC50

Previously resolved entries follow.
{"molecule": "COc1ccc(COc2cc(O)cc(O)c2C(=O)N2CCCC2)cc1", "testedSystem": "recombinant N-terminal PMS2 (residues 1-365) (Homo sapiens (Human), UniProt P54278)", "result": "> 10000 nM"}
{"molecule": "Cc1c(O)cc(O)c(C(=O)N2CCc3ccccc32)c1OCc1ccccc1", "testedSystem": "recombinant N-terminal PMS2 (residues 1-365) (Homo sapiens (Human), UniProt P54278)", "result": "1000 to 10000 nM"}
{"molecule": "COc1ccc2c(c1)CN(C(=O)c1c(O)cc(O)cc1OCc1ccccc1)C2", "testedSystem": "recombinant N-terminal PMS2 (residues 1-365) (Homo sapiens (Human), UniProt P54278)", "result": "< 1000 nM"}
{"molecule": "Cc1c(O)cc(O)c(C(=O)N2CCc3ncncc3C2)c1OCc1ccccc1", "testedSystem": "recombinant N-terminal PMS2 (residues 1-365) (Homo sapiens (Human), UniProt P54278)", "result": "1000 to 10000 nM"}
{"molecule": "CN1CCN(Cc2ccc3c(c2)CN(C(=O)c2c(O)cc(O)cc2OCc2ccccc2)C3)CC1", "testedSystem": "recombinant N-terminal PMS2 (residues 1-365) (Homo sapiens (Human), UniProt P54278)", "result": "< 1000 nM"}
{"molecule": "Cc1c(O)cc(O)c(C(=O)N2Cc3ccccc3C2)c1OCc1ccccc1", "testedSystem": "recombinant N-terminal PMS2 (residues 1-365) (Homo sapiens (Human), UniProt P54278)", "result": "< 1000 nM"}
{"molecule": "Cc1c(O)cc(O)c(C(=O)N2Cc3ccccc3C2CO)c1OCc1ccccc1 (stereo not shown)", "testedSystem": "recombinant N-terminal PMS2 (residues 1-365) (Homo sapiens (Human), UniProt P54278)", "result": "1000 to 10000 nM"}
{"molecule": "Cc1c(O)cc(O)c(C(=O)N2Cc3ccc(CN4CCN(C)CC4)cc3C2)c1OCC1CC1", "testedSystem": "recombinant N-terminal PMS2 (residues 1-365) (Homo sapiens (Human), UniProt P54278)", "result": "< 1000 nM"}
{"molecule": "Cc1c(O)cc(O)c(C(=O)N2CCc3ccccc3C2)c1OCc1ccccc1", "testedSystem": "recombinant N-terminal PMS2 (residues 1-365) (Homo sapiens (Human), UniProt P54278)", "result": "< 1000 nM"}

# input for lookup
Q: May I ask what IC50 has been recorded for Cc1c(O)cc(O)c(C(=O)N2CCc3ccccc3C2)c1OCc1ccn(C)n1 ?
Ans: > 10000 nM

###

Molecular target: recombinant N-terminal PMS2 (residues 1-365) (Homo sapiens (Human))
Experiment: Fluorescence polarisation assay for PMS2
Settings: FP probe displacement; 10 nM N-terminal PMS2, 5 nM probe compound, read after 1 hour
assayMetric: IC50

{"compound": "Cc1c(O)cc(O)c(C(=O)N2Cc3cccc(N4CCCC(O)C4)c3C2)c1OCc1ccccc1 (stereo not drawn)", "IC50": "< 1 µM"}
{"compound": "Cc1c(O)cc(O)c(C(=O)N2Cc3cccc(N4CC(C#N)C4)c3C2)c1OCc1ccccc1", "IC50": "< 1 µM"}
{"compound": "O=C(c1c(O)cc(O)cc1OCc1ccccc1)N1Cc2ccc(Br)cc2C1", "IC50": "< 1 µM"}
{"compound": "O=C(c1c(O)cc(O)cc1OCc1ccc(F)cc1)N1CCCC1", "IC50": "> 10 µM"}
{"compound": "Cc1c(O)cc(O)c(C(=O)N2Cc3ccncc3C2)c1OCc1ccccc1", "IC50": "< 1 µM"}

# input for lookup
Q: May I ask what IC50 has been recorded for Cc1c(O)cc(O)c(C(=O)N2Cc3ccc(C(=O)N(C)C)cc3C2)c1OCc1ccccc1 ?
Ans: < 1 µM
